biological target: UniProt P30542; assay: Allosteric modulation at human adenosine A1 receptor expressed in CHO FlpIn cells assessed as increase in EC50 concentration of N(6)-(R-phenylisopropyl)adenosine receptor agonist-induced ERK1/2 phosphorylation at 10 uM relative to control; type: functional, cell-based
Result type: Activity (%)

Example entries begin here.
NNC(=O)c1c(N)sc2c1CCCCCC2 = 48
Nc1sc2c(c1C(=O)c1ccccc1)CCCCCC2 = 36
NNC(=O)c1c(N)sc2c1CCCCC2 = 51

1: Nc1sc2c(c1C(=O)NCc1cccc(Cl)c1)CCCCCC2
2: Nc1sc2c(c1C(=O)c1cccc(C(F)(F)F)c1)CCC2
Exam item: Field: lower Activity | Options: 1 / 2 Reply with the label of the item you choose.
Marked response: 1
(1: 47%, 2: 98%)

---

target: Adenosine receptor A1 (Homo sapiens) (UniProt P30542); experiment: Allosteric modulation at human adenosine A1 receptor expressed in CHO FlpIn cells assessed as increase in EC50 concentration of N(6)-(R-phenylisopropyl)adenosine receptor agonist-induced ERK1/2 phosphorylation at 3 uM relative to control; assay type: functional, cell-based
Result type: Activity (%)

Example entries begin here.
Nc1sc2c(c1C(=O)NCc1ccccc1)CCCCCC2 = 48
NC(=O)c1c(N)sc2c1CCCCCC2 = 48
Cc1ccc(C(=O)c2c(N)sc3c2CCCCCC3)cc1 = 56
Nc1sc2c(c1C(=O)c1ccccc1)CCCCCC2 = 49
Nc1sc2c(c1C(=O)c1ccc(Cl)cc1)CCCCCC2 = 56

P: Nc1sc2c(c1C(=O)NNc1ccccc1)CCCCCC2
Q: Nc1sc2c(c1C(=O)c1cccc(C(F)(F)F)c1)CCC2
Exam item: Field: lower Activity | Options: P / Q Reply with the label of the item you choose.
Marked response: P
(P: 47%, Q: 75%)

---

Target: Adenosine receptor A1 (Homo sapiens) (UniProt P30542)
Sequence (whole entry): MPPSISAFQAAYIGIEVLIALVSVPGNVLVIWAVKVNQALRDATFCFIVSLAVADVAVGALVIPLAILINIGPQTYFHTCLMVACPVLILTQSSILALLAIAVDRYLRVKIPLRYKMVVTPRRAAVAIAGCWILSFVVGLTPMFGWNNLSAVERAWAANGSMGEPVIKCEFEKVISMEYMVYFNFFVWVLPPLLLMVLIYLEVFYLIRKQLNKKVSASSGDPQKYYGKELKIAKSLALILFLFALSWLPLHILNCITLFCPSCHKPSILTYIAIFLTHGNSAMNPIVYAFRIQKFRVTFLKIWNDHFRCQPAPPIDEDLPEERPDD
Test: Allosteric modulation at human adenosine A1 receptor expressed in CHO FlpIn cells assessed as increase in EC50 concentration of N(6)-(R-phenylisopropyl)adenosine receptor agonist-induced ERK1/2 phosphorylation at 10 uM relative to control
Assay type: functional, cell-based
Result type: Activity (%)

Cc1ccc(C(=O)c2c(N)sc3c2CCCCC3)cc1 = 68
Nc1sc2c(c1C(=O)c1ccc(Cl)cc1)CCCCCC2 = 63
Nc1sc2c(c1C(=O)c1cccc(C(F)(F)F)c1)CCCC2 = 88
Nc1sc2c(c1C(=O)NNc1ccccc1)CCCCC2 = 42
Cc1ccc(C(=O)c2c(N)sc3c2CCCCCC3)cc1 = 75

1: NC(=O)c1c(N)sc2c1CCCCCC2
2: Nc1sc2c(c1C(=O)c1cccc(C(F)(F)F)c1)CCCCC2
Exam item: Field: lower Activity | Options: 1 / 2 Reply with the label of the item you choose.
Marked response: 1

---

Molecular target: Adenosine receptor A1 (Homo sapiens)
Sequence (whole entry): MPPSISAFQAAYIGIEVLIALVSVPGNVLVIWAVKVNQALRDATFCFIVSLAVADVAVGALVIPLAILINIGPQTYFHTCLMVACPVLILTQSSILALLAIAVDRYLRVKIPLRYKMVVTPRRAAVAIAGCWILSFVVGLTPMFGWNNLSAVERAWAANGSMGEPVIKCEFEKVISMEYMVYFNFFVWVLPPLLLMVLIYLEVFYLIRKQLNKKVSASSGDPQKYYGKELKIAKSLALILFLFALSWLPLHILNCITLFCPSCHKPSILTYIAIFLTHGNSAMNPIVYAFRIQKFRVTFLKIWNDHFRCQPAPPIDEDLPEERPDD
Assay: Allosteric modulation at human adenosine A1 receptor expressed in CHO FlpIn cells assessed as increase in EC50 concentration of N(6)-(R-phenylisopropyl)adenosine receptor agonist-induced ERK1/2 phosphorylation at 3 uM relative to control
Type: functional, cell-based
Result type: Activity (%)

Nc1sc2c(c1C(=O)c1cccc(C(F)(F)F)c1)CCCCC2 = 53
NNC(=O)c1c(N)sc2c1CCCCCC2 = 48

1: NC(=O)c1c(N)sc2c1CCCCC2
2: Cc1ccc(C(=O)c2c(N)sc3c2CCCC3)cc1
Exam item: Field: lower Activity | Options: 1 / 2 Reply with the label of the item you choose.
Marked response: 1
(1: 47%, 2: 70%)

---

Molecular target: Adenosine receptor A1 (Homo sapiens) (UniProt P30542)
Sequence (whole entry): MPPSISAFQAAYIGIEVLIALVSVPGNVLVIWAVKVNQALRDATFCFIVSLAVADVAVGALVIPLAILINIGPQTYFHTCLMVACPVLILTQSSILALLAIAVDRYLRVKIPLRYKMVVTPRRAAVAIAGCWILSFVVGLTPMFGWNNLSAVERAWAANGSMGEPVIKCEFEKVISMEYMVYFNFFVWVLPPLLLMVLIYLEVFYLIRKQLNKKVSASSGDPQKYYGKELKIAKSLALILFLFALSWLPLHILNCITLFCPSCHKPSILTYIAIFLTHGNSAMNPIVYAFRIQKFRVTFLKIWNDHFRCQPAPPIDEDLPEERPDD
Assay: Allosteric modulation at human adenosine A1 receptor expressed in CHO FlpIn cells assessed as increase in ERK1/2 phosphorylation at 3 to 10 uM relative to control
Format: cell-based
Active and inactive are the calls of the source. The rule behind the calls is not given here.
Respond with a class label; see active, inactive

Cc1ccc(C(=O)c2c(N)sc3c2CCCC3)cc1 = active
Cc1ccc(C(=O)c2c(N)sc3c2CCCCCC3)cc1 = inactive
NNC(=O)c1c(N)sc2c1CCCCC2 = inactive
NC(=O)c1c(N)sc2c1CCCCCC2 = inactive
Nc1sc2c(c1C(=O)c1cccc(C(F)(F)F)c1)CCC2 = active

Exam item: Hello, I am checking results. What call was entered for Nc1sc2c(c1C(=O)c1cccc(C(F)(F)F)c1)CCCCCC2 ?
Marked response: inactive

Exam item: Entry Nc1sc2c(c1C(=O)NCc1ccccc1)CCCCCC2 please
Marked response: inactive

Exam item: Entry Cc1ccc(C(=O)c2c(N)sc3c2CCCCC3)cc1 please
Marked response: inactive

Exam item: Entry NC(=O)c1c(N)sc2c1CCCCC2 please
Marked response: inactive

Exam item: Entry Nc1sc2c(c1C(=O)NNc1ccccc1)CCCCC2 please
Marked response: inactive

Exam item: Entry Nc1sc2c(c1C(=O)c1cccc(C(F)(F)F)c1)CCCCC2 please
Marked response: inactive

Exam item: Entry Cc1ccc(C(=O)c2c(N)sc3c2CCC3)cc1 please
Marked response: inactive

Exam item: Entry Nc1sc2c(c1C(=O)c1ccccc1)CCCCCC2 please
Marked response: inactive

Exam item: Entry Nc1sc2c(c1C(=O)c1cccc(C(F)(F)F)c1)CCCC2 please
Marked response: active

---

Molecular target: Adenosine receptor A1 (Homo sapiens) (UniProt P30542)
Sequence (whole entry): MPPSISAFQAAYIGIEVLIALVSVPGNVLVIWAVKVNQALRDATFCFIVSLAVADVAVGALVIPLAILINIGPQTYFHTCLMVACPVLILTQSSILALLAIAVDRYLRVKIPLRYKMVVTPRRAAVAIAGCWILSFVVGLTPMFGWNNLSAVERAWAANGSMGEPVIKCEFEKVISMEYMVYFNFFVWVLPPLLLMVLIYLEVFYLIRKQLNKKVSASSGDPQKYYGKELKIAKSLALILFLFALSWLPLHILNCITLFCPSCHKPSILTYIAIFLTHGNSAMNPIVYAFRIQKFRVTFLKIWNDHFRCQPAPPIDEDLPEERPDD
Test: Allosteric modulation at human adenosine A1 receptor expressed in CHO FlpIn cells assessed as increase in EC50 concentration of N(6)-(R-phenylisopropyl)adenosine receptor agonist-induced ERK1/2 phosphorylation at 3 uM relative to control
Format: functional, cell-based
Result type: Activity (%)

Nc1sc2c(c1C(=O)NNc1ccccc1)CCCCC2 = 44
NNC(=O)c1c(N)sc2c1CCCCC2 = 52

1: Nc1sc2c(c1C(=O)NCc1cccc(Cl)c1)CCCCCC2
2: Nc1sc2c(c1C(=O)c1cccc(C(F)(F)F)c1)CCCC2
Exam item: Field: lower Activity | Options: 1 / 2 Reply with the label of the item you choose.
Marked response: 1

---

molecular target: Adenosine receptor A1 (Homo sapiens) (UniProt P30542); experiment: Allosteric modulation at human adenosine A1 receptor expressed in CHO FlpIn cells assessed as increase in EC50 concentration of N(6)-(R-phenylisopropyl)adenosine receptor agonist-induced ERK1/2 phosphorylation at 10 uM relative to control; format: functional, cell-based
Result type: Activity (%)

Example entries begin here.
Nc1sc2c(c1C(=O)c1cccc(C(F)(F)F)c1)CCCCCC2 = 65
Nc1sc2c(c1C(=O)NCc1ccccc1)CCCCCC2 = 50
Cc1ccc(C(=O)c2c(N)sc3c2CCC3)cc1 = 56
Nc1sc2c(c1C(=O)NNc1ccccc1)CCCCCC2 = 43

A: NC(=O)c1c(N)sc2c1CCCCC2
B: Cc1ccc(C(=O)c2c(N)sc3c2CCCC3)cc1
Exam item: Between the two listed entries A and B , which has its Activity at the higher number? Reply with the label of the item you choose.
Marked response: B
(B: 91%, A: 50%)
